# test.protocol: reduction of polyQ htt aggregates in cells – imaging, exon1htt(103Q)mCFP cells, high-content imaging, primary screen (AID 483);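 note: compound exposure lasted 3 days before fixation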
# test.parameters: exon1htt(103Q)mCFP cell line, aggregate imaging, at 2 µM; active compounds read high
Binning rule for recorded inhibition of aggregation: bottom end: < -10%; midrange: ≥ -10% and < 10%; top end: ≥ 10%

>  <molecule>
CC(C)CCNC(=O)NC(=O)CN1C(=O)NC2(CCCCC2)C1=O

>  <answer.label>
top end

$$$$
>  <molecule>
CCOC(=O)COc1ccc(S(=O)(=O)Nc2ccc3c(c2)OCO3)cc1

>  <answer.label>
midrange

$$$$
>  <molecule>
CCSc1oc(-c2ccco2)nc1S(=O)(=O)c1ccccc1

>  <answer.label>
bottom end

$$$$
>  <molecule>
C=C(C)Cn1c(SCC)nc2ccccc2c1=O

>  <answer.label>
top end

$$$$
>  <molecule>
CC1C(c2ccccc2)N(C)CCC12NC(=O)NC2=O (stereo unspecified)

>  <answer.label>
bottom end

$$$$
>  <molecule>
Fc1c(F)c(F)c(CSc2nc3ccccc3[nH]2)c(F)c1F

>  <answer.label>
top end

$$$$

Which inhibition of aggregation band matches Cc1ccc2nc(SC(C)C(=O)N3CCCC3)[nH]c2c1 (stereo unspecified) ?
midrange

Also need `c1ccc2c(c1)ccc1nnc(-c3ccc4c(c3)OCO4)n12` , thanks.
top end

Also need CN(C)CCCC1(c2ccc(F)cc2)OCc2cc(C#N)ccc21 (stereo unspecified) , thanks.
bottom end

Also need `CCOC(=O)Cc1nnc(NC(=O)CSc2nnc3c4ccccc4n(C(C)C)c3n2)s1` , thanks.
bottom end

Also need O=C(NC1CCCc2ccccc21)C1CCN(S(=O)(=O)c2cnc[nH]2)CC1 (stereo unspecified) , thanks.
midrange
